These measurements were taken from patent US20250270296A1.

- Substrate: S protein of SARS-CoV-2 variant B.1.351 (SA, Beta), full length, on pseudovirus (SARS-CoV-2), P0DTC2
- Assay protocol: cell-based or functional assay
Endpoint label: SARS-CoV2 pseudovirus IC50 (µg/mL)
Numbers only, in µg/mL.

Would you mind listing SARS-CoV2 pseudovirus IC50 for each of the following binders?
1. RBD-chAb-51 (antibody, V domains shown) VH: EVQLQQSGPELVKPGASAKISCKTSGYTFTEYTMYWVKQSHGKSLEWIGGINPNNGDTTYNQTFKGKATLTVDKSSSTAYMELRSLTSEDSAVYYCARDGYPFYYALDYWGQGISVTVSS VL: DIVMTQSQKFMSTSVGDRVSVTCKARQIVGTNVAWYQQKPGQSPKALIYSASYRYSGVPDRFTGSGSGTDFTLTITNVHSEDLAEFFCHQYNSYPWTFGGGTKLDIK
2. RBD-chAb-1 (antibody, V domains shown) VH: EVQLQQSGPQLVRPGASMKISCKASGYSFTTYWMHWVKQRPGQGLQWIGMIDPSDSETRLNQKFKDKATLTVDKSSSTAYMQLSSPTSEDSAVYYCARDFDYDRTMDYWGQGTSVTVSS VL: DIVMSQSPSSLAVSVGEKVTMSCKSSQSLLFSSSQKNYLAWYQQKAGQSPKLLIFWASTRESGVPDRFTGSGSGTDFTLTISSVKAEDLAIYYCKQYYKYPLTFGAGTKLDIK

Reply:
1. 0.00126
2. 0.0467
